Assay: Aqueous solubility of the compound in water at 1 mg exposed to ultrasound for 1 hr measured after 30 mins by UV-spectrophotometric method
Assay type: physicochemical
Conditions: water
measured-parameter: solubility at 1 h (µg/mL)
Field format: number, assumed µg/mL, no unit text.

chemical-smiles	endpoint-unit	solubility at 1 h
COc1ccccc1/C=C/C=C/C(=O)c1cc(OC)c(OC)c(OC)c1	µg/mL	25.9
O=C(/C=C/C=C/c1ccccc1)c1ccccc1Cl	µg/mL	8.2
COc1cc(C(=O)/C=C/C=C/c2ccccc2)cc(OC)c1OC	µg/mL	20.3

stdin: Look up solubility at 1 h for this compound: `O=C(/C=C/C=C/c1ccccc1)c1ccc(F)cc1F`
stdout: 7.86

stdin: And `COc1ccccc1/C=C/C=C/C(=O)c1ccc([N+](=O)[O-])cc1` ?
stdout: 13.9

stdin: And `CN(C)c1ccc(/C=C/C=C/C(=O)c2ccccc2Cl)cc1` ?
stdout: 7.55

stdin: And `CC(C)c1ccc(C(=O)/C=C/C=C/c2ccccc2)cc1` ?
stdout: 6.78

stdin: And `COc1ccccc1/C=C/C=C/C(=O)c1ccccc1Cl` ?
stdout: 9.45

stdin: And `O=C(/C=C/C=C/c1ccccc1)c1ccc([N+](=O)[O-])cc1` ?
stdout: 13.2
